Hello, the source for this data is the METLIN SMRT retention time set (Domingo-Almenara et al. 2019), in case you need it.

# Protocol Text: gradient 5% acetonitrile 3 min, to 50% in 2 min, to 85% in 15 min, held 3 min, 100 µL/min
# Experimental Parameters: column: Zorbax Extend-C18 2.1 x 50 mm; eluents: water / acetonitrile, 0.1% formic acid

{"Molecule": "O=C(NCCc1ccccn1)C1CCCN(c2nnc3ccc(C(F)(F)F)cn23)C1 (stereo not given)", "RP-LC retention time (s)": 583}
{"Molecule": "COc1cccc(C(=O)N2CCN(S(=O)(=O)c3cc4c5c(c3)CCC(=O)N5CCC4)CC2)c1", "RP-LC retention time (s)": 770}
{"Molecule": "Cc1cccc(N2C(=O)CN(Cc3ccccc3F)[C@H]3CS(=O)(=O)C[C@H]32)c1", "RP-LC retention time (s)": 803}
{"Molecule": "Fc1ccc(-c2nnc(Cc3nc(-c4cccs4)no3)o2)cc1", "RP-LC retention time (s)": 926}
{"Molecule": "CCOC(=O)C1CCN(C(=O)NCc2cccs2)CC1", "RP-LC retention time (s)": 677}

---

Readings of RP-LC retention time for the listed molecules
# Protocol Text: gradient 5% acetonitrile 3 min, to 50% in 2 min, to 85% in 15 min, held 3 min, 100 µL/min
# Experimental Parameters: column: Zorbax Extend-C18 2.1 x 50 mm; eluents: water / acetonitrile, 0.1% formic acid

{"Molecule": "O=C1CC(c2ccc(Cl)cc2)Cc2nc(N3CCN(c4ccccn4)CC3)ncc21 (stereo unspecified)", "Value Unit": "s", "RP-LC retention time": 752}
{"Molecule": "O=C(Nc1cnn(-c2ncncc2N2CCCC2)c1)c1cccc(C(F)(F)F)c1", "Value Unit": "s", "RP-LC retention time": 797}
{"Molecule": "COC(=O)Cn1nc(-c2nc(-c3cccc(Cl)c3)no2)ccc1=O", "Value Unit": "s", "RP-LC retention time": 960}
{"Molecule": "NC(=O)CSc1nnc(N2CCN(C(=O)c3ccccc3Cl)CC2)s1", "Value Unit": "s", "RP-LC retention time": 596}
{"Molecule": "Cn1cc(C(=O)NCc2cccs2)c2cccnc21", "Value Unit": "s", "RP-LC retention time": 691}
{"Molecule": "Cc1oc(C(C)C)nc1C(=O)NC1CCCCC1", "Value Unit": "s", "RP-LC retention time": 1020}
{"Molecule": "COc1ccc(-c2noc(-c3ccc(NCC4CCCO4)nn3)n2)cc1 (stereo unspecified)", "Value Unit": "s", "RP-LC retention time": 782}
{"Molecule": "COCCCNC(=O)N1CCCCCC1c1ccc(C)cc1 (stereo unspecified)", "Value Unit": "s", "RP-LC retention time": 939}
{"Molecule": "COc1ccc(N2CC(c3nc(-c4cccs4)no3)CC2=O)cc1Cl (stereo unspecified)", "Value Unit": "s", "RP-LC retention time": 930}
{"Molecule": "Cc1cc(C)c2[nH]c3c(c(=O)c2c1)CN(CC(=O)NCc1ccc2c(c1)OCO2)CC3", "Value Unit": "s", "RP-LC retention time": 620}
{"Molecule": "COC(=O)c1cc(OC)c(OC)cc1NC(=O)C1=Cc2cc(OC)ccc2OC=C1", "Value Unit": "s", "RP-LC retention time": 829}
{"Molecule": "CCCNC(=O)C1CCN(S(=O)(=O)c2ccc3c(c2)sc(=O)n3CCC)CC1", "Value Unit": "s", "RP-LC retention time": 824}
{"Molecule": "COCCNC(=O)c1cc(-c2ccncc2)cn1Cc1ccc(C)cc1", "Value Unit": "s", "RP-LC retention time": 640}
{"Molecule": "Cc1ccc(N2CCC(NC(=O)C(C)(C)C)C2=O)cc1C (stereo unspecified)", "Value Unit": "s", "RP-LC retention time": 802}
{"Molecule": "O=c1ccc(-c2cccc(Cl)c2)nn1Cc1nc(-c2cccs2)no1", "Value Unit": "s", "RP-LC retention time": 1000}
{"Molecule": "Cc1ccc(NS(=O)(=O)c2cc3n(c2)CCCN(C(C)C)C3=O)cc1", "Value Unit": "s", "RP-LC retention time": 778}
{"Molecule": "CCc1ccc(NC(=O)Cc2nc(C)c(C(=O)NCC(C)C)s2)cc1", "Value Unit": "s", "RP-LC retention time": 868}
{"Molecule": "COc1ccc(NC(=O)N2CCN(c3cnn4c(C)nnc4c3)CC2)cc1OC", "Value Unit": "s", "RP-LC retention time": 577}
{"Molecule": "CCn1c(=O)c(C)nc2cc(-c3noc(C4CC(=O)N(c5cccc(Cl)c5)C4)n3)ccc21 (stereo unspecified)", "Value Unit": "s", "RP-LC retention time": 966}
{"Molecule": "COc1cc(NC(=O)C2CC(=O)N(CCc3c[nH]c4ccc(F)cc34)C2)cc(OC)c1OC (stereo unspecified)", "Value Unit": "s", "RP-LC retention time": 744}
{"Molecule": "CC(=O)c1ccc2c(c1)N(CCCN(C)C)c1ccccc1S2", "Value Unit": "s", "RP-LC retention time": 741}

---

# Protocol Text: gradient 5% acetonitrile 3 min, to 50% in 2 min, to 85% in 15 min, held 3 min, 100 µL/min
# Experimental Parameters: column: Zorbax Extend-C18 2.1 x 50 mm; eluents: water / acetonitrile, 0.1% formic acid

{"Compound": "CCOC(=O)c1nc(NCCCOC)c2c(-c3ccc(F)cc3)noc2n1", "Value Unit": "s", "RP-LC retention time": 944}
{"Compound": "CCNC(=O)N1CCC(c2noc(-c3cnccn3)n2)C1 (centres undefined)", "Value Unit": "s", "RP-LC retention time": 608}
{"Compound": "CCOC(=O)c1cn(Cc2ccccc2F)c2nc(C)ccc2c1=O", "Value Unit": "s", "RP-LC retention time": 880}
{"Compound": "Cc1ccc(Nc2c(-c3ccc(N(C)C)cc3)nc3ccc(Br)cn23)cc1", "Value Unit": "s", "RP-LC retention time": 838}
{"Compound": "Nc1cccc(-c2ccc(N3CCCCC3)nn2)c1", "Value Unit": "s", "RP-LC retention time": 570}
{"Compound": "Cc1cc(Cl)ccc1NC(=O)C1CCCN1S(=O)(=O)c1cc2c(cc1C)NC(=O)C(C)O2 (centres undefined)", "Value Unit": "s", "RP-LC retention time": 914}
{"Compound": "Cn1c(=O)n(CCN2CCOCC2)c(=O)c2c1nc1n2CCCN1c1ccc(Br)cc1", "Value Unit": "s", "RP-LC retention time": 638}
{"Compound": "CCCCN(C)C(=O)Cn1c(C2CC(=O)N(c3ccc(OC)cc3)C2)nc2ccccc21 (centres undefined)", "Value Unit": "s", "RP-LC retention time": 712}
{"Compound": "Cc1cccc(NC(=O)Cn2ccc3ccc(-c4nnc(C)o4)cc32)n1", "Value Unit": "s", "RP-LC retention time": 700}
{"Compound": "COC[C@@H]1CN(Cc2cn(C)c3ccccc23)C[C@H]1c1nc(C)no1", "Value Unit": "s", "RP-LC retention time": 656}
{"Compound": "COCc1cc(=O)n(Cc2cc(C)ccc2C)c(N2CCCC2)n1", "Value Unit": "s", "RP-LC retention time": 912}
{"Compound": "O=C(c1ccc(OCC2CCCN2C(=O)c2ccc(F)cc2F)cc1)N1CCOCC1 (centres undefined)", "Value Unit": "s", "RP-LC retention time": 723}
{"Compound": "CCN1C(=O)c2cccnc2Sc2cc(NC(=O)C(C)C)ccc21", "Value Unit": "s", "RP-LC retention time": 711}
{"Compound": "COc1cc2c(cc1C(=O)NCCc1c[nH]c3ccccc13)OCCCO2", "Value Unit": "s", "RP-LC retention time": 859}
{"Compound": "CN(C(=O)Cn1c(=O)oc2ccccc21)C1CCc2nn(C)c(=O)n2CC1 (centres undefined)", "Value Unit": "s", "RP-LC retention time": 633}
{"Compound": "CC(=O)O[C@H]1Cc2ccccc2N(C(N)=O)c2ccccc21", "Value Unit": "s", "RP-LC retention time": 782}
{"Compound": "Nc1cc(C2CCN(C(=O)c3ccccc3F)CC2)no1", "Value Unit": "s", "RP-LC retention time": 648}
{"Compound": "COc1ccc(NS(=O)(=O)c2cn(CC(C)C)c3ncccc23)cc1", "Value Unit": "s", "RP-LC retention time": 896}
{"Compound": "COc1ccc(NC(C)=O)cc1NC(=O)C1CC(=O)N(c2n[nH]c3ccccc23)C1 (centres undefined)", "Value Unit": "s", "RP-LC retention time": 626}
{"Compound": "Cc1cc2nn(CC(=O)Nc3ccc4c(c3)OCCO4)c(=O)n2c(Nc2ccccc2C)n1", "Value Unit": "s", "RP-LC retention time": 908}
{"Compound": "CC(=O)N1CCc2cc(N3CC(C(=O)Nc4ccc(F)c(F)c4)CC3=O)ccc21 (centres undefined)", "Value Unit": "s", "RP-LC retention time": 726}
{"Compound": "CCOCC(=O)N1CC(c2nc(CCOCC3CCOCC3)no2)C1", "Value Unit": "s", "RP-LC retention time": 644}
{"Compound": "O=C(NCc1cccnc1)C1CC(=O)N(CCc2c[nH]c3ccc(Cl)cc23)C1 (centres undefined)", "Value Unit": "s", "RP-LC retention time": 613}
{"Compound": "Cn1nc(-c2nc(C3CC3)no2)c2c1CCN(C(=O)Nc1ccc(C(F)(F)F)cc1)C2", "Value Unit": "s", "RP-LC retention time": 959}
{"Compound": "COc1ccc(OCc2nnc3sc(-c4ccc(OC)cc4OC)nn23)cc1", "Value Unit": "s", "RP-LC retention time": 989}
{"Compound": "CCOc1ccc(-c2csc3c(=O)n(Cc4cccc(Br)c4)cnc23)cc1OCC", "Value Unit": "s", "RP-LC retention time": 1210}
{"Compound": "Cn1nccc1C(=O)N1CCC(NS(=O)(=O)c2ccc(Cl)cc2)CC1", "Value Unit": "s", "RP-LC retention time": 704}
{"Compound": "COc1ccc(OC)c(NC(=O)c2cc(S(=O)(=O)N3CCC(C)CC3)cn2C)c1", "Value Unit": "s", "RP-LC retention time": 1060}
{"Compound": "COCCNC(=O)Cc1ccc(NC(=O)c2ccc(Br)o2)cc1", "Value Unit": "s", "RP-LC retention time": 637}
{"Compound": "CCc1cc(=O)n(CC(=O)Nc2ccccc2F)c(-c2cccc(F)c2)n1", "Value Unit": "s", "RP-LC retention time": 1170}
{"Compound": "CC(C)n1cc(S(=O)(=O)Nc2ccc(F)c(F)c2)c2cccnc21", "Value Unit": "s", "RP-LC retention time": 936}
{"Compound": "CCOC(=O)c1cc2ccsc2n1CC(=O)NCCN1CCN(C)CC1", "Value Unit": "s", "RP-LC retention time": 600}
{"Compound": "Cc1cnc(C2CN(C(=O)C(C)C)C2)n1CC1CC1", "Value Unit": "s", "RP-LC retention time": 562}
{"Compound": "COc1ccc(NC(=O)Cn2cccc(-c3nc(-c4ccc(OC)c(OC)c4)no3)c2=O)cc1OC", "Value Unit": "s", "RP-LC retention time": 722}
{"Compound": "Cc1cccc2nc(-c3ccc(N4CCOCC4)cc3)c(Nc3ccc4c(c3)OCCO4)n12", "Value Unit": "s", "RP-LC retention time": 664}
{"Compound": "c1ccc(-n2nnc(-c3noc(-c4ccncc4)n3)c2-c2ccncc2)cc1", "Value Unit": "s", "RP-LC retention time": 732}
{"Compound": "O=C(c1ccccc1)N1CCc2sc(C(=O)N3CCN(c4ccccn4)CC3)cc2C1", "Value Unit": "s", "RP-LC retention time": 608}
{"Compound": "COCC(=O)Nc1cc(-c2nc3ccc(C)cc3[nH]2)ccc1C", "Value Unit": "s", "RP-LC retention time": 620}
{"Compound": "CC(C)c1ccc(N2C(=O)C3N=NN(Cc4nc(-c5ccccc5Cl)no4)C3C2=O)cc1 (centres undefined)", "Value Unit": "s", "RP-LC retention time": 1100}
